# Tested on: mAb 1H11
# test summary: OSTEOMARK competitive immunoassay testing apparent affinity of synthetic peptides for mAb 1H11
# Assay type: binding
# experimental context: nanomoles Bone Collagen Equivalents equivalent to 1 μg peptide; back fit into OSTEOMARK standard curve; values between 0.5 and 1 OD averaged
Non-standard residues stand in square brackets, D forms with d. Residues, ends and D or L forms follow the SMILES beside them. pGlu = O=C1CC[C@@H](C(=O)O)N1
measurement name: Results: peptide binding to mAb 1H11, 1 μg synthetic peptide = X nmole BCE

>  <compound>
CC(C)[C@H](NC(=O)CNC(=O)[C@H](CCC(=O)O)NC(=O)[C@H](C)NC(=O)[C@H](CC(=O)O)NC(=O)[C@H](Cc1ccc(O)cc1)NC(=O)[C@@H]1CCC(=O)N1)C(=O)NCC(=O)O [SEQ ID NO:27, J Y D A E G V G] ([pGlu]YDAEGVG-OH)

>  <target system>
mAb 1H11

>  <reading>
< 50 nmole BCE

$$$$

Given CC(C)[C@H](NC(=O)CNC(=O)CNC(=O)CNC(=O)[C@H](CC(=O)O)NC(=O)[C@H](Cc1ccc(O)cc1)NC(=O)[C@@H]1CCC(=O)N1)C(=O)NCC(=O)O [SEQ ID NO:6, J Y D G G G V G] ([pGlu]YDGGGVG-OH) , respond with its Results: peptide binding to mAb 1H11, 1 μg synthetic peptide = X nmole BCE. 114 nmole BCE

====

Reported Results: peptide binding to mAb 1H11, 1 μg synthetic peptide = X nmole BCE values for a set of molecules
# Test system: mAb 1H11
# test summary: OSTEOMARK competitive immunoassay testing apparent affinity of synthetic peptides for mAb 1H11
# Type: binding
# experimental context: nanomoles Bone Collagen Equivalents equivalent to 1 μg peptide; back fit into OSTEOMARK standard curve; values between 0.5 and 1 OD averaged
Non-standard residues stand in square brackets, D forms with d. Residues, ends and D or L forms follow the SMILES beside them. pGlu = O=C1CC[C@@H](C(=O)O)N1
Response body: numeric value in nmole BCE, unit text excluded.

>  <molecule>
CC(C)[C@H](NC(=O)CNC(=O)[C@H](CCCNC(=N)N)NC(=O)CNC(=O)[C@H](CC(=O)O)NC(=O)[C@H](Cc1ccc(O)cc1)NC(=O)[C@@H]1CCC(=O)N1)C(=O)NCC(=O)O [SEQ ID NO:15, J Y D G R G V G] ([pGlu]YDGRGVG-OH)

>  <reading>
23

$$$$

Given CC(C)[C@H](NC(=O)CNC(=O)[C@H](CO)NC(=O)CNC(=O)[C@H](CC(=O)O)NC(=O)[C@H](Cc1ccc(O)cc1)NC(=O)[C@@H]1CCC(=O)N1)C(=O)NCC(=O)O [SEQ ID NO:16, J Y D G S G V G] ([pGlu]YDGSGVG-OH) , respond with its Results: peptide binding to mAb 1H11, 1 μg synthetic peptide = X nmole BCE. 30

Given CC(C)C[C@H](NC(=O)CNC(=O)[C@H](CC(=O)O)NC(=O)[C@H](Cc1ccc(O)cc1)NC(=O)[C@@H]1CCC(=O)N1)C(=O)NCC(=O)N[C@H](C(=O)NCC(=O)O)C(C)C [SEQ ID NO:10, J Y D G L G V G] ([pGlu]YDGLGVG-OH) , respond with its Results: peptide binding to mAb 1H11, 1 μg synthetic peptide = X nmole BCE. 230

Given CC(C)[C@H](NC(=O)CNC(=O)[C@H](Cc1c[nH]cn1)NC(=O)CNC(=O)[C@H](CC(=O)O)NC(=O)[C@H](Cc1ccc(O)cc1)NC(=O)[C@@H]1CCC(=O)N1)C(=O)NCC(=O)O [SEQ ID NO:7, J Y D G H G V G] ([pGlu]YDGHGVG-OH) , respond with its Results: peptide binding to mAb 1H11, 1 μg synthetic peptide = X nmole BCE. 650

Given CC(C)[C@H](NC(=O)CNC(=O)[C@H](CC(N)=O)NC(=O)CNC(=O)[C@H](CC(=O)O)NC(=O)[C@H](Cc1ccc(O)cc1)NC(=O)[C@@H]1CCC(=O)N1)C(=O)NCC(=O)O [SEQ ID NO:12, J Y D G N G V G] ([pGlu]YDGNGVG-OH) , respond with its Results: peptide binding to mAb 1H11, 1 μg synthetic peptide = X nmole BCE. 135

Given CC(C)[C@H](NC(=O)CNC(=O)[C@H](CC(=O)O)NC(=O)[C@H](Cc1ccc(O)cc1)NC(=O)[C@@H]1CCC(=O)N1)C(=O)NCC(=O)N[C@H](C(=O)NCC(=O)O)C(C)C [SEQ ID NO:18, J Y D G V G V G] ([pGlu]YDGVGVG-OH) , respond with its Results: peptide binding to mAb 1H11, 1 μg synthetic peptide = X nmole BCE. 400

Given CC(C)[C@H](NC(=O)CNC(=O)[C@H](CCCCN)NC(=O)CNC(=O)[C@H](CC(=O)O)NC(=O)[C@H](Cc1ccc(O)cc1)NC(=O)[C@@H]1CCC(=O)N1)C(=O)NCC(=O)O [SEQ ID NO:9, J Y D G K G V G] ([pGlu]YDGKGVG-OH) , respond with its Results: peptide binding to mAb 1H11, 1 μg synthetic peptide = X nmole BCE. 100

Given CC(C)[C@H](NC(=O)CNC(=O)[C@H](CC(=O)O)NC(=O)CNC(=O)[C@H](CCC(=O)O)NC(=O)[C@H](Cc1ccc(O)cc1)NC(=O)[C@@H]1CCC(=O)N1)C(=O)NCC(=O)O [SEQ ID NO:32, J Y E G D G V G] ([pGlu]YEGDGVG-OH) , respond with its Results: peptide binding to mAb 1H11, 1 μg synthetic peptide = X nmole BCE. 1000
